- measurement-target: Cytochrome P450 2C19 (Homo sapiens) (UniProt P33261)
- Sequence (P33261 whole entry, looked up): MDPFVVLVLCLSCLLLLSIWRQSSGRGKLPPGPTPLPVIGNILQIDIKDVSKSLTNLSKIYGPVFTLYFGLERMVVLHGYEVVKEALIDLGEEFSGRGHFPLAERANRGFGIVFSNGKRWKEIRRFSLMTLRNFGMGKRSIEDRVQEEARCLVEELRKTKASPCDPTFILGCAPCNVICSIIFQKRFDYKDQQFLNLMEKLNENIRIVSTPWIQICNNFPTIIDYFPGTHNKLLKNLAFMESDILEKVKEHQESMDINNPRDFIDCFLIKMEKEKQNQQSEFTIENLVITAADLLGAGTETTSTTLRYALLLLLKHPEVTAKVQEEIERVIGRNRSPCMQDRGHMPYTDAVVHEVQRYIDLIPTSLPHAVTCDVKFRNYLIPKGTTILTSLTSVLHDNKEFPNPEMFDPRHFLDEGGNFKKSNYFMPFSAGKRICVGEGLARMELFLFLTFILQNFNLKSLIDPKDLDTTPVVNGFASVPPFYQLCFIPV
- procedure-text: blockers of cytochrome P450 2C19 activity – biochemical, luminescence, ADME assay, primary screen (AID 778);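 also: plate controls were negative control wells for no effect and 2.5 mM tranylcypromine positive control for full effect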
- conditions-used: CYP2C19 Supersomes, luciferin-H EGE luminescence, 30 min; at 5 µM; active compounds read high
About 20,000 (21%) of roughly 96,000 compounds were called active. Not all results are given here.

{"molecule": "CCN(CC)c1ccc(C2C3CCCCC3(O)CCN2CC(=O)Nc2ccccc2)cc1 (centres undefined)", "unit-of-measurement": "%", "inhibition": 21.9}
{"molecule": "Cc1cc2ccccc2n2c(SCC(=O)N3CCN(C(=O)c4ccco4)CC3)nnc12", "unit-of-measurement": "%", "inhibition": 1.4}
{"molecule": "CCOC(=O)c1c(C)n(C)c2ccc(OC)c(NC(=O)CN3CCC4(CC3)OCCO4)c12", "unit-of-measurement": "%", "inhibition": 33.3}
{"molecule": "CCN1CCN(C(=O)c2cc3cc4ccc(OC)cc4nc3s2)CC1", "unit-of-measurement": "%", "inhibition": -9.4}
{"molecule": "CCc1cc2c(=O)c(-c3ccon3)c(N)oc2cc1OC", "unit-of-measurement": "%", "inhibition": 1.3}
{"molecule": "Cc1ccc(-c2csc(N(Cc3ccco3)C(=O)c3cccs3)n2)cc1", "unit-of-measurement": "%", "inhibition": 68.5}
{"molecule": "N#Cc1nc(COc2ccc(-c3ccccc3)cc2)oc1NCc1cccnc1", "unit-of-measurement": "%", "inhibition": 51.7}
{"molecule": "CCn1cc(C(=O)N2CCN(Cc3ccc4c(c3)OCO4)CC2)c2cc(OC)c(OC)cc2c1=O", "unit-of-measurement": "%", "inhibition": 29.5}
{"molecule": "O=c1[nH]c2ccccc2n2c(-c3ccccc3)nnc12", "unit-of-measurement": "%", "inhibition": 32.6}
{"molecule": "COc1ccc(CN2CCn3ncc(C(=O)Nc4ccc(Cl)cc4Cl)c3C2=O)cc1", "unit-of-measurement": "%", "inhibition": -8.8}
{"molecule": "CC1(C)NC(=O)N(CCCCSc2ccc(Cl)cc2)C1=O", "unit-of-measurement": "%", "inhibition": 87.5}
{"molecule": "COc1ccc(CC(=O)c2ccc(O)cc2O)cc1OC", "unit-of-measurement": "%", "inhibition": 88}
{"molecule": "O=S(=O)(Cc1cc(Sc2ccccc2)nc(-c2ccccc2)n1)c1ccccc1", "unit-of-measurement": "%", "inhibition": 50.5}
{"molecule": "Cc1ccc(NC(=O)CN2CCC3(O)CCCCC3C2c2ccc3c(c2)OCO3)c(C)c1 (centres undefined)", "unit-of-measurement": "%", "inhibition": 63.9}
{"molecule": "CCOC(=O)N1CCC(NC(=O)COc2cc(=O)n(C)c3ccccc23)CC1", "unit-of-measurement": "%", "inhibition": -16.3}
{"molecule": "Cc1nc2ccccc2cc1OCc1ccc(F)cc1", "unit-of-measurement": "%", "inhibition": 17.6}
{"molecule": "COCc1cc(C(C)=O)ccc1OC", "unit-of-measurement": "%", "inhibition": 6.2}
{"molecule": "c1ccc(-c2[nH]ncc2-c2nc3ccccc3[nH]2)cc1", "unit-of-measurement": "%", "inhibition": 31.2}
{"molecule": "Fc1ccccc1COc1ccccc1CNCc1ccncc1", "unit-of-measurement": "%", "inhibition": 96.3}
{"molecule": "c1ccc2[nH]c(-c3nc4ccccc4[nH]3)nc2c1", "unit-of-measurement": "%", "inhibition": 53.1}
{"molecule": "Cc1cc(C(F)(F)F)n2ncc(-c3ccccc3)c2n1", "unit-of-measurement": "%", "inhibition": 21.2}
{"molecule": "S=c1[nH]nc2c3c4c(sc3ncn12)CCCC4", "unit-of-measurement": "%", "inhibition": -8.5}
{"molecule": "COc1ccccc1CNCc1cccs1", "unit-of-measurement": "%", "inhibition": 31.8}
{"molecule": "CCC(=O)c1ccc(OCC(O)CN2C(=O)NC(C)(C)C2=O)cc1 (centres undefined)", "unit-of-measurement": "%", "inhibition": 31.7}

All figures here come from PubChem BioAssay AID778.
